# credit: patent US20240109891A1

Molecular target: KRAS G12D and SOS1 proteins (Homo sapiens, UniProt Q07889)
Sequence (Q07889 whole entry, stated change not applied): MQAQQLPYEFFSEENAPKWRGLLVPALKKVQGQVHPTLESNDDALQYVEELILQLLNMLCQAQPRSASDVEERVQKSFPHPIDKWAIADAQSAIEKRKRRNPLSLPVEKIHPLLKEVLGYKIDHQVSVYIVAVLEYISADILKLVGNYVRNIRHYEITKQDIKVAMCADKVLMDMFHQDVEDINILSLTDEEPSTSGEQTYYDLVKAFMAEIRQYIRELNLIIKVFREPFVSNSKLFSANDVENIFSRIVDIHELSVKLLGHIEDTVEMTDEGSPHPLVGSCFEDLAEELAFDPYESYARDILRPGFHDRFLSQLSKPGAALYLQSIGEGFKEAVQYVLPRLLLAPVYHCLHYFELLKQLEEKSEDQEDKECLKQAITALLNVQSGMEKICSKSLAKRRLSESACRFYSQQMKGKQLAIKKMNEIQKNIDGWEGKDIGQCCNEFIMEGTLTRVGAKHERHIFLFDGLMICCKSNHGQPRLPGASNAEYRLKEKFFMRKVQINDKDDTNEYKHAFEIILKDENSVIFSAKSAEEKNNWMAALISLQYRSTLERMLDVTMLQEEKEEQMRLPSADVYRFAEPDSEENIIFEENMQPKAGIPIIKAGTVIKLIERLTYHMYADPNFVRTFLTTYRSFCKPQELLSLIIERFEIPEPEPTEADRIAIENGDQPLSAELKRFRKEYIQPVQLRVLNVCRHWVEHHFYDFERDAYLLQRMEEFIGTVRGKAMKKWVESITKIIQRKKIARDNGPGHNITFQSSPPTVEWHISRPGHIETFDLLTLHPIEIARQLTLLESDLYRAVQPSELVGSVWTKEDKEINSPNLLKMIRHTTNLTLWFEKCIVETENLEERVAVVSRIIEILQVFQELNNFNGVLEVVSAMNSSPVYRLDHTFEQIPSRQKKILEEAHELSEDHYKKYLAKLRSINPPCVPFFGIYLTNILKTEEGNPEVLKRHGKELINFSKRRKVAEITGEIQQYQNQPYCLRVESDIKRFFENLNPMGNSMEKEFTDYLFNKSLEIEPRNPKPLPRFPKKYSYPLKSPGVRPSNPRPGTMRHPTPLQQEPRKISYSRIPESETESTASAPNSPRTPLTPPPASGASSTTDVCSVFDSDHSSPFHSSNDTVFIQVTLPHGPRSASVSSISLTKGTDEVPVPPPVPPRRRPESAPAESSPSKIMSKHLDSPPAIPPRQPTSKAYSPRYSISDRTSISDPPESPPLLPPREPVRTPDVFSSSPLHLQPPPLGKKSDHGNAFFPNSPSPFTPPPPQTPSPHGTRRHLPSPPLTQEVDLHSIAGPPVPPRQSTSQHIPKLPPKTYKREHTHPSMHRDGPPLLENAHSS
Assay: KRAS-G12D/SOS1 binding assay (HTRF)
Details: Tag1-SOS1 / Tag2-KRAS G12D, 10 μM GTP
pIC50: −log10 of the molar value.
reported metric: pIC50

Here's what some known entries look like.
Query: So what does the record say about pIC50 for C[C@@H](Nc1nc2ccnn2c2cc(=O)n(C3CC(F)(F)C3)cc12)c1cccc(C(F)(F)CO)c1 [Example 66] ?
Response: > 7.00

Query: So what does the record say about pIC50 for COCC(F)(F)c1cccc([C@@H](C)Nc2nc(C)nc3c2cc(-c2ccc(=O)n(C)c2)c2c3cnn2C)c1 [Example 31] ?
Response: > 7.00

Query: So what does the record say about pIC50 for C[C@@H](Nc1nc(C(F)(F)F)nc2c1cc(-c1ccc(=O)n(C)c1)c1c2cnn1C)c1cccc(C(F)(F)CO)c1 [Example 32] ?
Response: 6.30 to 7.00

Query: So what does the record say about pIC50 for Cc1nc(N[C@H](C)c2cccc(C(F)(F)CO)c2)c2cc([C@H]3CC[C@@H](O)CC3)c3nncn3c2n1 [Example 15] ?
Response: > 7.00

Query: So what does the record say about pIC50 for Cc1nc(N[C@H](C)c2cccc(C(F)(F)CO)c2)c2cc(-c3ccc(=O)[nH]c3)c3c(cnn3C)c2n1 [Example 29] ?
Response: > 7.00

Consider the following items and state reported pIC50 for each.
1. COc1cc2c(cc1O[C@H]1CCOC1)c(N[C@H](C)c1cccc(C(F)(F)F)c1)nc1ccnn12 [Example 54]
2. Cc1nc(N[C@H](C)c2cccc(C(F)(F)CO)c2)c2cc(N3CC[C@@H](O)C3)c3c(cnn3C)c2n1 [Example 44]
3. Cc1nc(N[C@H](C)c2cccc(C(F)(F)CO)c2)c2cc(-c3ccc(=O)n(C)c3)c3[nH]ncc3c2n1 [Example 27]

Response:
1. 5.30 to 6.30
2. > 7.00
3. > 7.00

Consider the following items and state reported pIC50 for each.
1. COc1cc2c(cc1O[C@H]1CCOC1)c(N[C@H](C)c1cccc(C(F)(F)F)c1)nc1cncn12 [Example 56]
2. C[C@@H](Nc1nc2ccnn2c2cc(=O)n([C@H]3CCOC3)cc12)c1cc(N)cc(C(F)(F)F)c1 [Example 70]
3. Cc1nc(N[C@H](C)c2cccc(C(F)(F)CO)c2)c2cc([C@H]3CC[C@H](O)CC3)c3nncn3c2n1 [Example 16]
4. COc1cc2c(cc1O[C@H]1CCOC1)c(N[C@H](C)c1cc(N)cc(C(F)(F)F)c1)nc1ccnn12 [Example 55]
5. Cc1nc(N[C@H](C)c2cccc(C(F)(F)CO)c2)c2cc(C3CCN(C)CC3)c3c(cnn3C)c2n1 [Example 30]
6. COc1cc2c(cc1-c1ccc(=O)n(C)c1)c(N[C@H](C)c1cccc3c1CCC3(F)F)nc1ccnn12 [Example 46]

Response:
5.30 to 6.30
> 7.00
> 7.00
6.30 to 7.00
> 7.00
6.30 to 7.00

Consider the following items and state reported pIC50 for each.
1. Cc1nc(N[C@H](C)c2cccc3c2CCC3(F)F)c2cc(O[C@H]3CCOC3)c3nncn3c2n1 [Example 19]
2. CNCc1ccccc1-c1ccc([C@@H](C)Nc2nc3ccnn3c3cc(=O)n(C4(C)CC4)cc23)s1 [Example 74]

Response:
1: > 7.00; 2: > 7.00
